Tested on: MDA-MB-231 breast
Experiment: NCI-60 one-dose screen, 48 h (100 = growth as untreated, 0 = no growth, -100 = all killed)
Settings: 10 µM unless noted
The panel holds about 83,000 compounds, 20% with a hit somewhere; the sample as a whole holds those more often. Calls of active or inactive are those of the source. The calls were made as follows: active = growth percent below 10; inactive = the rest.
Listing: growth of selected molecules

Guide cases for growth, answers given:
| Query Smiles | Reported Measurement |
| --- | --- |
| COc1ccc(/C=C(\C#N)c2ccc(OC)cc2)cc1 | 72.8% (inactive) |
| Cc1ccc(C(=O)Nc2ccccc2N)cc1 | 69.7% (inactive) |
| O=C(CCCCCCC(=O)Nc1ccc2c(c1)/C(=C/c1ccc[nH]1)C(=O)N2)NO | 1.47% (active) |

**Query** # input molecule: "COc1c(Cl)ccc2c(-c3nc4cc(Cl)c(F)cc4s3)cc(=O)oc12" ; wanted: its growth
**Result** 65% (inactive)

**Query** Sample "O=C1C(Br)=C(c2ccccc2)C(=O)C(Br)=C1c1ccccc1" — what was its growth?
**Result** 94.6% (inactive)
